The reported measurements were obtained from ChEMBL document CHEMBL1201862.

- System: ACHN
- method-notes: NCI tumour cell line growth inhibition, 48 h
Calls of active or inactive are those of the source. Rule as the data show it: active = GI50 up to about 1.1 µM and inactive = higher.
measured-attribute: GI50

1) O=c1n(CCO)nc2n1CCCN2: > 100 µM (inactive)
2) CC1=CC(=O)/C(=C/NC(=S)C(N)=S)C(=O)O1: > 100 µM (inactive)

Request: What value of GI50 on ACHN does COc1cc(/C=C/C(=N\NS(=O)(=O)c2ccc(C)cc2)c2sc(NNC(C)=O)nc2C)ccc1O have?
Result: > 100 µM (inactive)

Request: Kindly state the measured GI50 obtained for CCOC(=O)c1c(-c2ccc(Cl)cc2)c(C#N)c(=S)n(C2OC(COC(C)=O)C(OC(C)=O)C(OC(C)=O)C2OC(C)=O)c1C (stereo not given) with ACHN.
Result: > 100 µM (inactive)

Request: # get_value(readout= GI50, system= ACHN) for CC(=O)OCC1OC(n2c(C)c(C(C)=O)c(-c3ccco3)c(C#N)c2=S)C(OC(C)=O)C(OC(C)=O)C1OC(C)=O (stereo not given)
Result: > 100 µM (inactive)

Request: Value wanted: GI50 (ACHN) of entry Cc1nc2sccn2c1C(=O)NC(=O)Nc1ccc(Cl)cc1
Result: > 100 µM (inactive)

Request: Tell me reported GI50 for O=C1C(c2ccccc2)=C(O)c2cccc3cccc1c23 , tested with ACHN.
Result: > 100 µM (inactive)

Request: Request body: readout GI50, system ACHN, query O=C(CC(=O)Nc1ccccc1)NNC(c1cc(/N=N/c2ccc(Br)cc2)ccc1O)P(O)O (stereo not given) . Return the value.
Result: 2.12 µM (inactive)

---

- Test system: HCC 2998
- method-notes: NCI tumour cell line growth inhibition, 48 h
The source made the active and inactive calls. No stated cut-off is given here; in the data, active = GI50 up to about 1.1 µM and inactive = higher.
measured-attribute: GI50

Reference set, count: 2
1) Cc1ccc(SCC(OCn2cnc3c(N)ncnc32)[C@H](C)F)cc1 (stereo partly drawn): > 100 µM (inactive)
2) NC(=O)c1cccc(/N=c2\oc3ccc(Br)cc3cc2-c2nc3ccccc3[nH]2)c1: 15.3 µM (inactive)

Request: Query (compound): C[C@@H](NC(C#N)c1ccco1)c1ccccc1 (stereo partly drawn) ; field requested: GI50
Result: 32.7 µM (inactive)

---

- Tested on: HOP-92
- method-notes: NCI tumour cell line growth inhibition, 48 h
The source made the active and inactive calls. No stated cut-off is given here; in the data, active = GI50 up to about 1.1 µM and inactive = higher.
In this exercise, the only acceptable responses are YES for active, NO for inactive

Sample answers from the record:
1. CC1(C)O[C@H](C(=O)O)[C@@H](C(=O)O)O1: NO
2. CN(C)CC1CCC(CN(C)C)C1=NO (stereo not drawn): NO
3. NNS(=O)(=O)c1cc(C(=O)O)cc(C(=O)O)c1: NO
4. CN1C(=O)C(C)(C)C2(SC(C)(C)C2(C)C)N(C)C1=S (stereo not drawn): NO
5. Cc1nc(Nc2nnc(-c3cc([N+](=O)[O-])cc([N+](=O)[O-])c3C)o2)sc1C(=O)CC(=O)Cc1nc2ccc(Cl)cc2nc1O: NO

Request: Please indicate how the test categorized COCN(CCC1=CCCCC1)C(=O)OC .
Result: NO

Request: // param item: NCCCCCCn1c(-c2ccc(Br)cc2)cs/c1=N\c1ccccc1 ; yields the recorded call
Result: NO

Request: Hi, do you know how CC(=O)O[C@H]1C[C@H](O[C@H]2[C@@H](O)C[C@H](O[C@H]3[C@@H](O)C[C@H](O[C@H]4CC[C@@]5(C)[C@H](CC[C@@H]6[C@@H]5CC[C@]5(O)[C@@H](C7=CC(=O)OC7)CC[C@]65O)C4)O[C@@H]3C)O[C@@H]2C)O[C@H](C)[C@H]1O[C@@H]1O[C@H](CO)[C@@H](O)[C@H](O)[C@H]1O came out in this test?
Result: YES

---

- Test system: RXF 393
- method-notes: NCI tumour cell line growth inhibition, 48 h
Calls of active or inactive are those of the source. Cut-off read from the data, not from the text of the source: active = GI50 up to about 1.1 µM and inactive = higher.
measured-attribute: GI50

1. O=C1C(c2ccccc2)=C(O)c2cccc3cccc1c23: > 100 µM (inactive)
2. CC[C@@]1(O)C(=O)OCc2c1cc1n(c2=O)Cc2cc3cc(O)ccc3nc2-1 [HYDROXYCAMPTOTHECIN]: 0.0236 µM (active)

Request: For RXF 393, provide GI50 of O=C(CSCC(=O)N/N=C\c1cccc(Br)c1)N/N=C\c1cccc(Br)c1 please.
Result: 20.3 µM (inactive)

Request: Entry O=[N+]([O-])c1ccc(O)c(/C=N/CC2CCCN3CCCCC23)c1 (centres undefined) , system RXF 393: what GI50 was measured?
Result: 23 µM (inactive)

---

Catalogue of molecules with associated GI50
- Test system: SK-MEL-2
- method-notes: NCI tumour cell line growth inhibition, 48 h
Activity calls are given as the source filed them. No stated cut-off is given here; in the data, active = GI50 up to about 1.1 µM and inactive = higher.

1) Nc1c2ccccc2nc2c(C(=O)Nc3ccc(S(N)(=O)=O)cc3)cccc12: > 100 µM (inactive)

Request: Under SK-MEL-2: GI50 value of Cc1nc2nn[nH]n2c(=O)c1CCO ?
Result: > 100 µM (inactive)

---

- Test system: SN12C
- method-notes: NCI tumour cell line growth inhibition, 48 h
Active and inactive are the calls of the source. Cut-off read from the data, not from the text of the source: active = GI50 up to about 1.1 µM and inactive = higher.
// reported GI50 for each item listed

See these solved cases before continuing.
1) O=CC1=CCCC2(C1)OCCO2: > 100 µM (inactive)
2) CC(=O)C(=NNc1ccc(-n2c(C)nc3ccc(Br)cc3c2=O)cc1)C(C)=O: > 100 µM (inactive)
3) COc1nc(SC)nc2c1C(O)n1c(nc3ccccc31)S2 (stereo unspecified): 24.3 µM (inactive)
4) COc1cc(/C=C2\N=C(c3ccccc3)N(/N=C3\C(=O)Nc4ccccc43)C2=O)cc(OC)c1OC: > 100 µM (inactive)
5) C1CCN2CC3CCCN4CCCC(C2C1)C34 (stereo unspecified): > 100 µM (inactive)

Request: Tell me the measured GI50 of O=c1c2ccccc2c(=O)c2c1c1[nH]c3ccccc3c1c1c(=O)c3ccccc3c(=O)c21 , please.
Result: > 100 µM (inactive)

Request: Look up GI50: Cc1cc(OCC(O)CO)ccc1Cl (stereo unspecified)
Result: > 100 µM (inactive)

Request: Given the compound COc1cc(-c2ccccc2)c(OC)cc1CCl , what is its reported GI50?
Result: > 100 µM (inactive)

Request: GET /values?readout=GI50&item= C/C=C1/CN2[C@@H](C3=C[C@@H]4[C@@H]5N(C3=O)c3ccccc3[C@@]53CCN5C/C(=C/C)[C@@H]4C[C@H]53)C[C@@]34c5ccccc5N5C(=O)CC=C([C@H]1C[C@H]23)[C@H]54
Result: 3.01 µM (inactive)

Request: Record request: GI50 value, item CCOC(=O)C(Cc1ccc(OC(=O)OC(C)(C)C)cc1)NC(=O)OC(C)(C)C (stereo unspecified)
Result: 44.8 µM (inactive)

Request: Using the record for CC1CCCP(=O)(c2ccccc2)CCC1 (stereo unspecified) , report its GI50.
Result: > 100 µM (inactive)

---

- System: A549
- method-notes: NCI tumour cell line growth inhibition, 48 h
The source made the active and inactive calls. Rule as the data show it: active = GI50 up to about 1.1 µM and inactive = higher.
Write down one outcome, taken from class 1 = active, class 0 = inactive

Request: Recorded test call requested for Cc1nc(C(N)=S)sc1C(=O)CC(=O)C(=O)Nc1nc2ccccc2[nH]1
Result: class 0

Request: What did this assay record as the result for COc1ccc(/C(=N\Nc2ccccn2)c2ccccn2)cc1 ?
Result: class 1

Request: Hi, do you know how CC(=O)O[C@@]1(C)[C@@H](C)C(=O)O[C@@H]2CCN3CC=C(COC(=O)[C@]1(C)O)[C@H]23 came out in this test?
Result: class 0

Request: In this assay, the call recorded for CC1=CC(=O)/C(=C/NC(=S)C(N)=S)C(=O)O1 was what?
Result: class 0

Request: Query: recorded result category for COCN(CCC1=CCCCC1)C(=O)OC in this test
Result: class 0

Request: Could you kindly confirm the outcome this assay logged for O=[N+]([O-])c1ccc(/C(Cl)=C/c2ccc(/C=C(\Cl)c3ccc([N+](=O)[O-])cc3[N+](=O)[O-])cc2)c([N+](=O)[O-])c1 ?
Result: class 0

Request: Any idea what this test logged for S=C(Nc1ccc(Cl)cc1)c1ccc(CN2CCCCC2)s1 ?
Result: class 1

Request: What call does the record list for [O-][n+]1c2ccccc2[n+]([O-])c2ccccc21 ?
Result: class 0

Request: For Cc1oc2c(C)c3oc(=O)cc(C)c3cc2c1CN , what call appears in the results of this test?
Result: class 0

Request: Hi, do you know how CC1=CC2=C(C=O)C(=O)[C@](C)(O)[C@@H](O)C2=CO1 came out in this test?
Result: class 0

---

- System: NCI-H23
- method-notes: NCI tumour cell line growth inhibition, 48 h
Calls of active or inactive are those of the source. Cut-off read from the data, not from the text of the source: active = GI50 up to about 1.1 µM and inactive = higher.
measured-attribute: GI50

# example entries with known answers
1) CCN(CC)CC1CCCCN1CC(=O)N1CC(C)C(=O)Nc2ccccc21 (stereo not drawn): > 100 µM (inactive)
2) Nc1ccc2ncc(NCc3ccc(F)cc3)nc2c1: > 100 µM (inactive)

Attention now turns to another entry.
Request: Looking for the measured GI50 of COc1cc2ccc3ccncc3c2cc1OC , can you help?
Result: > 10 µM (inactive)
